Values compiled from ChEMBL document CHEMBL1201862.

Tested on: NCI-H522
testDetails: NCI tumour cell line growth inhibition, 48 h
Calls of active or inactive are those of the source. Cut-off read from the data, not from the text of the source: active = GI50 up to about 1.1 µM and inactive = higher. Where a SMILES comes first, the peptide text is derived from it. [ ]: non-standard residue; d: D form. pGlu = O=C1CC[CH](C(=O)O)N1
A correct response names exactly one class from label 1 = active, label 0 = inactive

Here's what some known entries look like.
[[record]]
compound = "CC(NC(=O)C1CCC(=O)N1)C(=O)N1CCCC1C(N)=O (stereo not drawn) ([pGlu]-Ala-Pro-NH2; configuration not given here)"
category = "label 0"

[[record]]
compound = "C#C[C@@]1(O)CCCC2=CC3(CC[C@]21C)SCCS3"
category = "label 0"

[[record]]
compound = "COc1cc(C2C(C(=O)Nc3ccc(Cl)c(Cl)c3)=C(C)NC(C)=C2C(=O)Nc2ccc(Cl)c(Cl)c2)ccc1O"
category = "label 0"

[[record]]
compound = "C=CCN(c1cc(OCc2ccccc2)c(NC(C)=O)cc1[N+](=O)[O-])S(C)(=O)=O"
category = "label 0"

[[record]]
compound = "CC(=O)O[C@@]12CO[C@@H]1CC(O)[C@@]1(C)C(=O)[C@H](O)C3=C(C)C(O)C[C@@](O)(C(OC(=O)c4ccccc4)C12)C3(C)C (some centres not stated)"
category = "label 1"


Check the results log: what was the call for CC[C@H]1C=CCC[C@@]2(C[C@@H]3CC[C@H]4[C@@H](C(=O)OCCCCCCCCCCCCCCCC(=O)N(CCCN)C[C@@H](O)CCN)[C@@]5(CCC[C@@H](C)O5)NC(=[N+]34)N2)O1 ?
label 0

Check the results log: what was the call for NS(=O)(=O)c1nnc(NS(=O)(=O)c2ccccc2C(=O)O)s1 ?
label 0

---

Tested on: KM12
testDetails: NCI tumour cell line growth inhibition, 48 h
The source made the active and inactive calls. No stated cut-off is given here; in the data, active = GI50 up to about 1.1 µM and inactive = higher. Where a SMILES comes first, the peptide text is derived from it. [ ]: non-standard residue; d: D form. 2Nal = N[CH](Cc1ccc2ccccc2c1)C(=O)O
A correct response names exactly one class from active, inactive

[[record]]
molecule = "CCOc1snc(C(Cl)(Cl)Cl)c1Cl"
category = "inactive"

[[record]]
molecule = "CC(C)/C=N\\N1C(N)=C(C#N)C(C#N)(C#N)C1C(C)C (centres undefined)"
category = "inactive"

[[record]]
molecule = "N#CCCN(CCC#N)c1ccc(/C=C2\\SC(=S)NC2=O)cc1Br"
category = "inactive"

[[record]]
molecule = "O=C(O)c1ccc([C@@H]2C(=O)N(O)[C@@H]3C=CC[C@@H]32)cc1"
category = "inactive"

[[record]]
molecule = "CC(C)(C)C[P+](C)(C)c1ccccc1"
category = "inactive"

[[record]]
molecule = "CCOC(=O)c1ccc(N(CCOS(=O)(=O)c2ccc(C)cc2)CCOS(=O)(=O)c2ccc(C)cc2)cc1"
category = "inactive"

[[record]]
molecule = "CC(NC(=O)C(N)Cc1ccccc1)C(=O)NC(Cc1ccc(O)cc1)C(=O)NC(Cc1c[nH]c2ccccc12)C(=O)NC(CCCCN)C(=O)NC(C(=O)NC(C)C(=O)NC(Cc1ccc2ccccc2c1)C(N)=O)C(C)C (centres undefined) (H-FAYWKVA[2Nal]-NH2; configuration not given here)"
category = "inactive"

[[record]]
molecule = "N#CC(NCCc1ccccc1)c1ccccc1 (centres undefined)"
category = "inactive"


Now look at this entry.
Check the results log: what was the call for COc1ccc2nccc(NCCCN3CCN(CCCNc4ccnc5ccc(OC)cc45)CC3)c2c1 ?
active

---

Tested on: UACC-257
testDetails: NCI tumour cell line growth inhibition, 48 h
Activity calls are given as the source filed them. No stated cut-off is given here; in the data, active = GI50 up to about 1.1 µM and inactive = higher.
A correct response names exactly one class from active, inactive

[[record]]
compound = "CCCNC(=S)NNC(=O)CSc1nc(-c2ccccc2)c(-c2ccccc2)[nH]1"
category = "inactive"


Check the results log: what was the call for CCOC(=O)CC(=O)CSc1c(-c2ccccc2)c(=O)n(-c2ccccc2)c(=S)n1-c1ccccc1 ?
inactive

Check the results log: what was the call for Nc1nc2c(N)cc(C(F)(F)F)cc2nc1-c1ccccc1 ?
inactive

Check the results log: what was the call for CCCCCCCCCCCCC(=O)OC(c1cnco1)c1nc(C(O)CC(O)C(O)C(C)O)co1 (stereo not given) ?
active

Check the results log: what was the call for CC(C)(C)/N=N/C(C)(C)N=C=O ?
inactive

Check the results log: what was the call for N#Cc1c(-c2ccc(Cl)cc2Cl)nc2[nH]nc(S)n2c1=O ?
inactive

Check the results log: what was the call for Nc1nc(NCCO)c(N=O)c(=O)[nH]1 ?
inactive

Check the results log: what was the call for Cc1cc(OC(=O)Nc2ccc(Cl)cc2)ccc1C(=S)Nc1ccccc1 ?
inactive

Check the results log: what was the call for CC1(C)CCC2(C(=O)OC3OC(CO)C(O)C(O)C3O)CCC3(C)C(=CCC4C5(C)CCC(OC6OC(CO)C(O)C(O)C6O)C(C)(C)C5CCC43C)C2C1 (stereo not given) ?
inactive

Check the results log: what was the call for N#Cc1c2c(c(N3CCOCC3)n3c1nc1ccccc13)CCCC2 ?
inactive

---

Test system: TK-10
testDetails: NCI tumour cell line growth inhibition, 48 h
The source made the active and inactive calls. Rule as the data show it: active = GI50 up to about 1.1 µM and inactive = higher.
GI50: recorded values

The examples below pair each entry with its known result.
[[record]]
compound = "O=C(/C=C/c1cccc2ccccc12)c1ccccc1Cl"
measuredresult = "14.6 µM (inactive)"

[[record]]
compound = "CCOC(=O)C(Cc1ccccc1)NC(=O)c1ccc(/N=N/N(C)C)cc1 (centres undefined)"
measuredresult = "> 100 µM (inactive)"


Reported TK-10 GI50 for item Cc1ccc(S(=O)OCC23CC4CC(CC(C4)C2)C3)cc1 (centres undefined) was > 100 µM (inactive)

Reported TK-10 GI50 for item Cc1c2cnccc2nc2[nH]c3ccncc3c12 was 3.95 µM (inactive)

Reported TK-10 GI50 for item COc1cc2[nH]c3c(c2cc1OC)CCN[C@]31CC[C@]2(CC3c4c(cc(OC)c(O)c42)CCN3C)C[C@H]1OC (some centres undefined) was 21.6 µM (inactive)

Reported TK-10 GI50 for item O=C1CCC(=O)C1=NNc1cc(Cl)cc(Cl)c1 was > 100 µM (inactive)

Reported TK-10 GI50 for item O=C(CCc1nnc(S)[nH]1)Nc1ccc(Cl)c(Cl)c1 was 79.4 µM (inactive)

Reported TK-10 GI50 for item CCOC(=O)NC(Nc1cccc(F)c1)(C(F)(F)F)C(F)(F)F was > 100 µM (inactive)

Reported TK-10 GI50 for item CC(NNC(=O)c1cc[n+]([BH2-]C#N)cc1)c1cccc(C(F)(F)F)c1 (centres undefined) was > 100 µM (inactive)

Reported TK-10 GI50 for item COc1ccc(CCNC(=O)[C@H]2CCCC[C@@H]2CCO)cc1OC was > 100 µM (inactive)

---

Test system: RXF 393
testDetails: NCI tumour cell line growth inhibition, 48 h
Calls of active or inactive are those of the source. Cut-off read from the data, not from the text of the source: active = GI50 up to about 1.1 µM and inactive = higher.
GI50: recorded values

The examples below pair each entry with its known result.
[[record]]
molecule = "CC1(c2ccccc2)N=c2[nH]cnc2=C(C(N)=O)N1 (configuration not stated)"
assaytarget = "RXF 393"
measuredresult = "> 100 µM (inactive)"

[[record]]
molecule = "c1nc(N2CC2)c2cnn(C3CCCCO3)c2n1 (configuration not stated)"
assaytarget = "RXF 393"
measuredresult = "> 100 µM (inactive)"

[[record]]
molecule = "O=C1CCC(=O)C1=NNc1cc(Cl)cc(Cl)c1"
assaytarget = "RXF 393"
measuredresult = "> 100 µM (inactive)"

[[record]]
molecule = "O=c1[nH]c2cc3cccnc3c(Cl)c2nc1CBr"
assaytarget = "RXF 393"
measuredresult = "17.7 µM (inactive)"

[[record]]
molecule = "c1ccc(N/N=N/c2ccc(-c3nc4ccccc4[nH]3)cc2)nc1"
assaytarget = "RXF 393"
measuredresult = "16.4 µM (inactive)"

[[record]]
molecule = "COC(=O)CN1Cc2cc(C)cc(c2O)CN(CC(=O)OC)Cc2cc(C)cc(c2O)CN(CC(=O)OC)Cc2cc(C)cc(c2O)C1"
assaytarget = "RXF 393"
measuredresult = "> 33.7 µM (inactive)"


Now turn to the next molecule.
Reported RXF 393 GI50 for item Cc1cc(C)nc(NS(=O)(=O)c2ccc(NC(=O)c3ccc(Cl)c4c(Nc5ccc(S(=O)(=O)Nc6nc(C)cc(C)n6)cc5)c5ccccc5nc34)cc2)n1 was 2.16 µM (inactive)

---

Test system: SK-MEL-5
testDetails: NCI tumour cell line growth inhibition, 48 h
The source made the active and inactive calls. No stated cut-off is given here; in the data, active = GI50 up to about 1.1 µM and inactive = higher.
recordedMetric: GI50

The examples below pair each entry with its known result.
[[record]]
compound = "Cn1cc(NC(=O)c2cc(NC(=O)Nc3cc(C(=O)Nc4cc(C(=O)NCCC(=N)N)n(C)c4)n(C)c3)cn2C)cc1C(=O)NCCC(=N)N"
assaytarget = "SK-MEL-5"
recordedmetric = "GI50"
measuredresult = "17.4 µM (inactive)"

[[record]]
compound = "CCN(CC)CCCC(C)NC(=O)c1cc(-c2nccn2C)nc2ccc(C)cc12 (centres undefined)"
assaytarget = "SK-MEL-5"
recordedmetric = "GI50"
measuredresult = "> 100 µM (inactive)"

[[record]]
compound = "O=C1N(CN2CCOCC2)CN(CN2CCOCC2)C(=O)N1Cc1ccc(-c2ccc(CN3C(=O)N(CN4CCOCC4)CN(CN4CCOCC4)C3=O)cc2)cc1"
assaytarget = "SK-MEL-5"
recordedmetric = "GI50"
measuredresult = "> 19.7 µM (inactive)"


Briefly, GI50 measured for COc1cc2c(/C=C3/C(=O)N(c4ccccc4)c4ccccc43)c(Cl)[nH]c2cc1C : 2.32 µM (inactive)

Briefly, GI50 measured for COC(=O)C(=O)C(C(=O)C=C(C)C)C(=O)C(=O)Nc1ccc(C)cc1C (centres undefined) : > 100 µM (inactive)

Briefly, GI50 measured for CN(C)C(=O)C1CCN(Cc2c[nH]c3ccccc23)CC1 : > 100 µM (inactive)

Briefly, GI50 measured for COc1ccc(CCNC(=O)[C@H]2CCCC[C@@H]2CCO)cc1OC : > 100 µM (inactive)

Briefly, GI50 measured for COc1nc(NC2OC(COC(C)=O)C(OC(C)=O)C(OC(C)=O)C2OC(C)=O)c2c(OC(C)=O)c(C)c(=O)oc2n1 (centres undefined) : > 100 µM (inactive)

Briefly, GI50 measured for COC(CN1C=C(Sc2ccccc2)CC1)OC : 18.9 µM (inactive)
